Exercise: for every item that follows, state its recorded pIC50.
- Experimental target: Mitogen-activated protein kinase 14 (Homo sapiens)
- Sequence (Q16539 whole entry): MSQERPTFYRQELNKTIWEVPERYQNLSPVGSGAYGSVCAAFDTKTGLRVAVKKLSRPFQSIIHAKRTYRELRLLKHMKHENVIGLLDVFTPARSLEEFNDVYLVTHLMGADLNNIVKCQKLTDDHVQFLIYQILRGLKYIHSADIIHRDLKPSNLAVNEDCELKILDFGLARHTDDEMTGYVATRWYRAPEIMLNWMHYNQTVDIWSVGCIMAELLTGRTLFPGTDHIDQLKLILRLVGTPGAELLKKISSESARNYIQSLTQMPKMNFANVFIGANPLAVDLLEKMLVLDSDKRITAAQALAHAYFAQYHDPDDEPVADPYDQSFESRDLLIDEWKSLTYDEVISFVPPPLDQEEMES
- Assay text: Inhibition of p38-alpha MAP kinase
Note: pIC50 values are expressed as the negative base-10 logarithm of concentration in M.

Exercise: Item "O=C(c1c(Cl)cccc1Cl)N1CCc2c(cnn2-c2ccccc2Cl)C1" has what recorded pIC50?
Solution: 6.95

Exercise: Item "Cn1cc(C(=O)N2CCc3c(cnn3-c3ccccc3Cl)C2)c2ccccc21" has what recorded pIC50?
Solution: 7.40

Exercise: Item "COc1cc2c(cc1C(=O)N1CCn3c(cnc3-c3ccc(F)cc3F)C1)c(C(=O)C(=O)N(C)C)cn2C" has what recorded pIC50?
Solution: 7.89

Exercise: Item "Cn1ccc2cc(C(=O)N3CCc4c(cnn4-c4ccccc4Cl)C3)ccc21" has what recorded pIC50?
Solution: 7.52

Exercise: Item "CN(C)C(=O)C(=O)c1cn(C)c2cc(Cl)c(C(=O)N3CCn4c(cnc4-c4ccc(F)cc4F)C3)cc12" has what recorded pIC50?
Solution: 7.85

Exercise: Item "CN(C)C(=O)C(=O)c1c[nH]c2cc(Cl)c(C(=O)N3CCn4c(cnc4-c4ccc(F)cc4F)C3)cc12" has what recorded pIC50?
Solution: 7.96

Exercise: Item "COc1nc2[nH]ccc2cc1C(=O)N1CCn2c(cnc2-c2ccc(F)cc2F)C1" has what recorded pIC50?
Solution: 6.79

Exercise: Item "O=C(c1c(F)cccc1F)N1CCc2c(cnn2-c2ccccc2Cl)C1" has what recorded pIC50?
Solution: 7.17

Exercise: Item "COc1nc2[nH]ccc2cc1C(=O)N1CCc2c(cnn2-c2ccccc2Cl)C1" has what recorded pIC50?
Solution: 6.86

Exercise: Item "COc1nc2[nH]cc(C(=O)C(=O)N(C)C)c2cc1C(=O)N1CCn2c(cnc2-c2ccc(F)cc2F)C1" has what recorded pIC50?
Solution: 7.54

Exercise: Item "COc1nc2[nH]cc(C(=O)C(=O)N(C)C)c2cc1C(=O)N1CCc2c(cnn2-c2ccccc2Cl)C1" has what recorded pIC50?
Solution: 7.54

Exercise: Item "O=C(c1ccc(F)cc1F)N1CCn2c(cnc2-c2ccc(F)cc2F)C1" has what recorded pIC50?
Solution: 6.23

Exercise: Item "O=C(c1c(F)cccc1F)N1CCn2c(cnc2-c2ccc(F)cc2F)C1" has what recorded pIC50?
Solution: 6.78

Exercise: Item "O=C(c1c[nH]c2ccccc12)N1CCc2c(cnn2-c2ccccc2Cl)C1" has what recorded pIC50?
Solution: 7.26

Exercise: Item "O=C(c1c(F)cccc1F)N1CCc2c(cnn2-c2ccc(F)cc2Cl)C1" has what recorded pIC50?
Solution: 7.01

Exercise: Item "Cn1ccc2cc(C(=O)N3CCn4c(cnc4-c4ccc(F)cc4F)C3)c(Cl)cc21" has what recorded pIC50?
Solution: 7.30

Exercise: Item "Cn1ccc2cc(C(=O)N3CCc4c(cnn4-c4ccccc4Cl)C3)c(Cl)cc21" has what recorded pIC50?
Solution: 7.59

Exercise: Item COc1nc2c(cc1C(=O)N1CCn3c(cnc3-c3ccc(F)cc3F)C1)c(C(=O)C(=O)N1CCC(O)C1)cn2C (racemic) has what recorded pIC50?
Solution: 7.80

Exercise: Item "CN(C)C(=O)C(=O)c1cn(C)c2cc(Cl)c(C(=O)N3CCc4c(ncnc4-c4ccc(F)cc4F)C3)cc12" has what recorded pIC50?
Solution: 6.71
